- Tested on: Bacillus subtilis DB104 (SP-AmyQ fusion secretion)
- measurement description: AmyQ secretion efficiency, weighted average sort bin (1 = best secretion, 10 = worst) (bin number (weighted average, 1-10)); higher = lower secretion efficiency
Please use rule met whenever AmyQ secretion efficiency is not below 4, and rule not met whenever it is.

As a guide, the following entries are already answered.
- ordered residues: "MFKKHTISLLIIFLLASAVLAKPIEAHDD"
  qualitative label: "rule not met"
- ordered residues: "MKRLKKTLLIGIMLLTFAPSAFAKQD"
  qualitative label: "rule not met"
- ordered residues: "MTKVMLATALFLGLTPAGANAADL"
  qualitative label: "rule met"
- ordered residues: "MKKAFILSAAAAVGLFTFGGVQQASCKEL"
  qualitative label: "rule not met"

Input line: Given the entry `MNFKKTVVSALSISALALEEEDEDASAHEI` , answer whether its AmyQ secretion efficiency meets or surpasses 4.
Output line: rule met

Input line: Given the entry `MRKKIKVLTMCFLGLILFVPTALADNS` , answer whether its AmyQ secretion efficiency meets or surpasses 4.
Output line: rule not met

Input line: Given the entry `MKKWIYVVLVLSIAGIGGFSVHDASS` , answer whether its AmyQ secretion efficiency meets or surpasses 4.
Output line: rule met

Input line: Given the entry `MRNLTKTSLLLAGLCTAAQMVFVTHASAAPS` , answer whether its AmyQ secretion efficiency meets or surpasses 4.
Output line: rule not met

Input line: Given the entry `MKRKKIMIFLTSFMLLAMTGQTALAKDV` , answer whether its AmyQ secretion efficiency meets or surpasses 4.
Output line: rule not met

Input line: Given the entry `MKLSVKIRRRKTVAAAAMTAKMYATAKGN` , answer whether its AmyQ secretion efficiency meets or surpasses 4.
Output line: rule met

Input line: Given the entry `MAIIIAIIAAVIVIAALITFNVNNASPG` , answer whether its AmyQ secretion efficiency meets or surpasses 4.
Output line: rule met

Input line: Given the entry `MKKWMITIAMLKKKRRRLFVFISPLKSHKT` , answer whether its AmyQ secretion efficiency meets or surpasses 4.
Output line: rule met

Input line: Given the entry `MKKQIITATTAVVLGSTLFAGATGFAFAPASAQSI` , answer whether its AmyQ secretion efficiency meets or surpasses 4.
Output line: rule not met

Input line: Given the entry `MKWMCSICCAAVLLAGGALQAEAV` , answer whether its AmyQ secretion efficiency meets or surpasses 4.
Output line: rule not met

Input line: Given the entry `MKSKGSIMACLILFSFTITTFINTETSSAFSN` , answer whether its AmyQ secretion efficiency meets or surpasses 4.
Output line: rule not met

Input line: Given the entry `MKRTWNVCLTALLSVLLVAGSVPFHAEAAPD` , answer whether its AmyQ secretion efficiency meets or surpasses 4.
Output line: rule not met

Input line: Given the entry `MFKKHTISLLIIFLLASAVLAKPCEAHTV` , answer whether its AmyQ secretion efficiency meets or surpasses 4.
Output line: rule not met

====

- Test system: Bacillus subtilis DB104 (SP-AmyQ fusion secretion)
- measurement description: AmyQ secretion efficiency, weighted average sort bin (1 = best secretion, 10 = worst) (bin number (weighted average, 1-10)); higher = lower secretion efficiency
Please use Yes whenever AmyQ secretion efficiency is not below 6, and No whenever it is.

As a guide, the following entries are already answered.
- ordered residues: "MYKKFVPFAVFLFLFFVSFEMMENCHALDY"
  qualitative label: "Yes"
- ordered residues: "MKLKSKLLLSCLALSTVFVATTIWNAPTH"
  qualitative label: "Yes"
- ordered residues: "MRMLWRSLALCGLALTLALPCAQAAEP"
  qualitative label: "No"
- ordered residues: "MKKKQVMLALTAAAGLGLTALHSAPAQKAAPL"
  qualitative label: "No"
- ordered residues: "MKNMSKLVVSVTLFFSFLTIGPLAHAQNS"
  qualitative label: "No"
- ordered residues: "MMKKLFHSTQGRQSFFSFFGVQPIHAKKQ"
  qualitative label: "Yes"

Input line: Given the entry `MKKRLIGFLVLVPALIMSGITLGEANKK` , answer whether its AmyQ secretion efficiency meets or surpasses 6.
Output line: Yes

Input line: Given the entry `MTGTTVSTAIIIISVMLSFVIAVFHTIHASELTP` , answer whether its AmyQ secretion efficiency meets or surpasses 6.
Output line: No

Input line: Given the entry `MGLGKKLSVAVAASFMSLSISLPGVQCAEG` , answer whether its AmyQ secretion efficiency meets or surpasses 6.
Output line: No
